target: recombinant human TFPI (tissue factor pathway inhibitor) (human, UniProt P10646 29-304); experiment: cell-based or functional assay
Measured Quantity: FXa assay % of FXa alone, 20 nM Ab, 10 nM TFPI (%)
Respond numerically; units are % and should not be typed.

Exercise: Entry clone 4287 (antibody, V domains shown) VH: EVQLVESGGGLVKPGGSLRLSCAASGFTFSKYAMNWFRQAPGKGLEWVSTITTGGSYTYYADSVEGRFTISRDNAKNSLYLQMNSLRAEDTAVYYCARQHPYGNFLMDYWGQGTLVTVSS VL: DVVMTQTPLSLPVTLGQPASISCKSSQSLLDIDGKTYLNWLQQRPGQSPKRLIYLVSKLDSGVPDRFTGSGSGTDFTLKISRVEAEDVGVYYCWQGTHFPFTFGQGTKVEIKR : reported FXa assay % of FXa alone, 20 nM Ab, 10 nM TFPI = ?
Solution: 2.5

Exercise: Entry under review: clone 1023 (antibody, V domains shown, scFv on yeast at selection; human IgG4/kappa IgG as purified) VH: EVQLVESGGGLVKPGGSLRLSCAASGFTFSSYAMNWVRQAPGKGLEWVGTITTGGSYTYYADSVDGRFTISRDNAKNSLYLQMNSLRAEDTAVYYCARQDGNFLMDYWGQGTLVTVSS VL: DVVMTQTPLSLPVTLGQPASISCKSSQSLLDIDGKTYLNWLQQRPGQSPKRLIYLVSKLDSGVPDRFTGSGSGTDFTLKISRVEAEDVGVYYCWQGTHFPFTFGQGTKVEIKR . Reported FXa assay % of FXa alone, 20 nM Ab, 10 nM TFPI?
Solution: 78.4

Exercise: Look up FXa assay % of FXa alone, 20 nM Ab, 10 nM TFPI: clone 1224 (antibody, V domains shown) VH: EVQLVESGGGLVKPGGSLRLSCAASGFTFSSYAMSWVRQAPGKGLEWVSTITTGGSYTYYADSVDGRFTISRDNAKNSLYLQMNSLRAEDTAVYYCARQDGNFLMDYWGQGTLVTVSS VL: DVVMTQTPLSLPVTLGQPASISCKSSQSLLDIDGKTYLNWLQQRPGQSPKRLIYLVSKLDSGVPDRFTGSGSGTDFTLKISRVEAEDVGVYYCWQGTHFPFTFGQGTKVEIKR
Solution: 66.1
